assayExplanation: intrinsic fluorescence of library compounds, ex339/em460 – biochemical, MLSMR library, data from DPM-DC assay, artefact control, profiling panel (AID 709);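 also: signal is the first read of a kinetic run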
experimentalConditions: compound autofluorescence, ex339/em460 nm, NADH buffer; at 10 µM; stronger effect = higher value; 1 = no-compound wells, NADH background
In all, about 65,000 compounds went through this assay and about 3,600 (5.5%) were called active. This excerpt belongs to a sample that is enriched for actives.
measure: fluorescence fold increase
Just the number, please.

Exercise: State its fluorescence fold increase: O=c1c(-c2ccccc2)coc2c(CN3CCOCC3)c(O)ccc12
Solution: 2.45

Exercise: State its fluorescence fold increase: O=C(c1ccccc1-c1ccccc1)N1CCOCC1
Solution: 0.82

Exercise: State its fluorescence fold increase: Cc1cc(NC(=O)c2cc(-c3cccs3)on2)nn1Cc1ccc(Cl)cc1
Solution: 2.04

Exercise: State its fluorescence fold increase: COc1ccc(-n2c(C)cc(C(=O)CSc3nnc(-c4cccs4)o3)c2C)cc1
Solution: 1.07

Exercise: State its fluorescence fold increase: OC1CN=C2Sc3ccccc3N2C1 (centres undefined)
Solution: 1.06

Exercise: State its fluorescence fold increase: Cc1ccc(Cn2ccc(NC(=O)c3cc(C(C)C)on3)n2)cc1
Solution: 1.08

Exercise: State its fluorescence fold increase: CCCn1c(=O)c2[nH]c(C3CCCC3)nc2n(CCC)c1=O
Solution: 1.03

Exercise: State its fluorescence fold increase: COc1ccc(OC)c(NC(=O)CSc2nc(N)c(-c3ccccc3)c(=O)[nH]2)c1
Solution: 1.08

Exercise: State its fluorescence fold increase: Cc1ccc(OCCCC(=O)N2CCOCC2)c(C)c1
Solution: 1.13

====

assayExplanation: intrinsic fluorescence of library compounds, ex339/em460 – biochemical, MLSMR library, data from DPM-DC assay, artefact control, profiling panel (AID 709);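 also: signal is the first read of a kinetic run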
experimentalConditions: compound autofluorescence, ex339/em460 nm, NADH buffer; at 10 µM; stronger effect = higher value; 1 = no-compound wells, NADH background
In all, about 65,000 compounds went through this assay and about 3,600 (5.5%) were called active. The list comes from a sample in which actives are over-represented; it also holds close analogues and randomly drawn compounds. Where a SMILES comes first, the peptide text is derived from it. The star is where a group is joined. Bz = O=C(c1ccccc1)*
measure: fluorescence fold increase
Just the number, please.

Exercise: State its fluorescence fold increase: O=C1CC(c2cccc(Br)c2)C2=C(CCCC2=O)N1 (stereo not drawn)
Solution: 2.04

Exercise: State its fluorescence fold increase: COc1ccc(-c2cn3ccsc3n2)cc1
Solution: 1.08

Exercise: State its fluorescence fold increase: CC(=O)NC(Cc1ccc(F)cc1)C(=O)O (stereo not drawn)
Solution: 1.02

Exercise: State its fluorescence fold increase: Clc1ccc(Cc2nnc(-c3cccs3)o2)cc1
Solution: 1.11

Exercise: State its fluorescence fold increase: COc1ccc(Nc2oc(-c3ccccc3Cl)nc2C#N)cc1
Solution: 2.11

Exercise: State its fluorescence fold increase: COc1ccc(-c2nn3c(-c4ccccc4)nnc3s2)cc1OC
Solution: 1.69

Exercise: State its fluorescence fold increase: CC1CN(C2CCN(C(=O)COc3ccccc3)CC2)CC(C)O1 (stereo not drawn)
Solution: 1.1

Exercise: State its fluorescence fold increase: CCOC(=O)c1sc2nc(CSCC(=O)OCc3ccc(C(=O)OC)o3)[nH]c(=O)c2c1C
Solution: 1.46

Exercise: State its fluorescence fold increase: O=C(Nc1nccs1)C1CCCN1S(=O)(=O)c1cccc2cccnc12 (stereo not drawn)
Solution: 1

Exercise: State its fluorescence fold increase: O=C1CC(c2cccc(F)c2)C2=C(CCCC2=O)N1 (stereo not drawn)
Solution: 1.17

Exercise: State its fluorescence fold increase: O=C(NC(Cc1ccccc1)C(=O)N1CCCC1C(=O)O)c1ccccc1 (stereo not drawn) (Bz-Phe-Pro-OH; configuration not given here)
Solution: 0.84

Exercise: State its fluorescence fold increase: c1ccc(-c2cn3cccnc3n2)cc1
Solution: 2.51

Exercise: State its fluorescence fold increase: CC(=O)Nc1ccc(-c2cn3cccnc3n2)cc1
Solution: 5.32
